Target: T1, hIL2Rb-his (human, UniProt P14784 27-240)
T1 sequence: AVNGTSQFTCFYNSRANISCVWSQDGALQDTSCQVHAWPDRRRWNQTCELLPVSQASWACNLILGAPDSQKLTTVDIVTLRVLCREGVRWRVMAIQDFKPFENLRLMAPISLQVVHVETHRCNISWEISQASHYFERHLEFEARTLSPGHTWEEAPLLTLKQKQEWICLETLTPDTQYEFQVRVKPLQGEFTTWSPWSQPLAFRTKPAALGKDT
Experiment: SPR Biacore T200; Mono-Fc VHH captured on Protein A chip, hIL2Rb-his analyte; 1:1 Langmuir fit
pKd: −log10 of the molar value.

binder	pKd
hIL2Rb_VHH7 Mono-Fc VHH (Fc fusion, not shown: a dimerising Fc or GST) QVQLQESGGGSVQAGGSLRLSCAASGYEYCRIHMTWYRQGPGKEREFVSSIGSDGRKTYANSVTGRFTISRDNANHTVYLQMNSLSPEDTAMYYCKTEYLYGLGCPDGSAYWGQGTQVTVSS	8.96
hIL2Rb_VHH4 Mono-Fc VHH (Fc fusion, not shown: a dimerising Fc or GST) QVQLQESGGGSVQTGGSLRLSCAVSGYTTYSFNYMGWFRQAPGKEREGVAVIYTGGGSTLYADSVKGRFTISQDNAKNTVYLQMNSLKPEDTAMYYCAADDQRFASPLYAYFGYWGQGTQVTVSS	8.47
hIL2Rb_VHH5 Mono-Fc VHH (Fc fusion, not shown: a dimerising Fc or GST) QVQLQESGGGSVQVGGSLRLSCATSGDTKSIRCMGWFRQTPGKEREGIAAIDREGFATYADSVYDRFTIAQDNAQNTLYLEMNALKPEDTAMYYCAAQNMCRVVRGAMTGVDYWGKGTQVTVSS	9.40
